Please respond with reported relative cell viability for every item in the list.
System: MDA-MB-231
Assay: relative cell viability, compound alone, vs DMSO (fraction of DMSO control); higher = less growth inhibition;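 further: viability read out with the CCK-8 kit in 96-well plates, screening a set of 303 compounds acting on lipid metabolism targets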
Conditions: 72 h
Structures can show the parent of a compound that is named as a salt.
One number for each entry.

- compound: "CNC(=O)c1cccc(NC(=O)N2CCC(Oc3ccccc3Cl)CC2)c1"
  relative cell viability: 0.974
- compound: "CCN(CC)C(=O)N1CCN(C)CC1 [Diethylcarbamazine citrate]"
  relative cell viability: 0.856
- compound: "CC(=O)Nc1nc(C)c(S(=O)(=O)Nc2ccc(C(O)(C(F)(F)F)C(F)(F)F)cc2)s1"
  relative cell viability: 1.24

Please state, for each entry, its recorded relative cell viability.
1. CCCCCCCCCCCCCCOc1ccc(C(=O)O)o1
2. N[C@@H](Cc1c[nH]cn1)C(=O)O
3. CC(C)n1c(/C=C/C(O)CC(O)CC(=O)O)c(-c2ccc(F)cc2)c2ccccc21 (centres undefined) [Fluvastatin sodium salt]
4. O=C(O)C(O)Cc1ccc(O)c(O)c1 (centres undefined) [Sodium Danshensu]

1
1.03
0.863
0.818

Please state, for each entry, its recorded relative cell viability.
1. Fc1ccc(-c2c3cccc(C(F)(F)F)c3nn2Cc2ccc(F)cc2Cl)cc1
2. C[C@@H]1O[C@@H](O[C@H]2[C@H](Oc3cc(O)c4c(c3)O[C@H](c3ccc(O)cc3)CC4=O)O[C@H](CO)[C@@H](O)[C@@H]2O)[C@H](O)[C@H](O)[C@H]1O
3. c1cc(-c2cnn3cc(-c4ccc(OCCN5CCCCC5)cc4)cnc23)ccn1
4. O=C(Nc1cnccc1Cl)N1CCN(Cc2ccc3c(c2)OC(F)(F)O3)CC1
5. CC(C)C1=CC2=CC[C@@H]3[C@](C)(CCC[C@@]3(C)C(=O)O)[C@H]2CC1
6. CCCCCCCCCCOc1ccc(C(=O)Nc2cc(C(=O)NCCCC)ccc2SC)cc1
7. Nc1cccc(S(=O)(=O)N2CCCN(S(=O)(=O)c3ccc4c(c3)OCCO4)CC2)c1
8. Cc1cnc(C(=O)NCCc2ccc(S(=O)(=O)NC(=O)NC3CCCCC3)cc2)cn1 [Glipizide]

1: 0.816; 2: 0.892; 3: 0.383; 4: 0.771; 5: 1.07; 6: 1.06; 7: 1.01; 8: 0.817

----------
Tested on: HCC1937
Assay: relative cell viability, compound alone, vs DMSO (fraction of DMSO control); higher = less growth inhibition
Conditions: 72 h
Please respond with reported relative cell viability for every item in the list.

Look over these answered cases.
- molecule: "NC(N)=N/N=C/c1cccc(Cl)c1Cl [Raphin1 acetate]"
  relative cell viability: 1.01
- molecule: "CNC(=O)c1cccc(NC(=O)N2CCC(Oc3ccccc3Cl)CC2)c1"
  relative cell viability: 0.991
- molecule: "CC(C)Cc1ccc([C@H](C)C(=O)O)cc1"
  relative cell viability: 1.36
- molecule: "C=C(C)[C@@H]1CC[C@]2(C)CC[C@]3(C)[C@H](CC[C@@H]4[C@@]5(C)CCC(=O)C(C)(C)[C@@H]5CC[C@]43C)[C@@H]12"
  relative cell viability: 1.04
- molecule: "O=C(O)c1cc(F)c2nc(N3[C@@H]4CC[C@H]3C[C@@H](OCc3c(-c5ccccc5OC(F)(F)F)noc3C3CC3)C4)sc2c1 [Tropifexor]"
  relative cell viability: 1.05
- molecule: "CC(=O)N1CCN(c2ccc(OCC3COC(Cn4ccnc4)(c4ccc(Cl)cc4Cl)O3)cc2)CC1 (centres undefined)"
  relative cell viability: 1.3
- molecule: "O=C(O)c1ccnc(N2CC(O)(c3ccc(OCc4c(-c5c(Cl)cccc5Cl)noc4C4CC4)cc3Cl)C2)c1 [Cilofexor]"
  relative cell viability: 0.661
- molecule: "O=C(Nc1ccccc1)c1cc([N+](=O)[O-])ccc1Cl"
  relative cell viability: 1.08

Please state, for each entry, its recorded relative cell viability.
1. CN(C)c1cccc(-c2c3c(=O)n(-c4ccccc4Cl)[nH]c3cc(=O)n2C)c1
2. CC(C)OC(=O)C(C)(C)Oc1ccc(C(=O)c2ccc(Cl)cc2)cc1 [Fenofibrate]
3. C[C@]12C=CC(=O)N[C@@H]1CC[C@@H]1[C@@H]2CC[C@]2(C)[C@@H](C(=O)Nc3cc(C(F)(F)F)ccc3C(F)(F)F)CC[C@@H]12 [Dutasteride]
4. O=C(O)C(O)Cc1ccc(O)c(O)c1 (centres undefined) [Sodium Danshensu]
5. COc1ccc(-c2cc(=O)c3c(O)c(OC)c(OC)c(OC)c3o2)cc1OC

[0.903, 1.16, 0.798, 0.718, 0.699]

Looking up CC(C)(Oc1ccc(C(=O)c2ccc(Cl)cc2)cc1)C(=O)O [Choline Fenofibrate] , I found its relative cell viability recorded as 0.928

Every entry's value here was drawn from the supplement of paper PMC9492666.
